B1: HDV Ribozyme (parent)
chain: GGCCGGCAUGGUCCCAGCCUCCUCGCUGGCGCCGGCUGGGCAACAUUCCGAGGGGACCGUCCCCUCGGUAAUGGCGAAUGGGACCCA

Variants of: B1
assay-details: self-cleavage, relative activity (ratio to wild type); higher = more cleavage; co-transcriptional
Would you mind sorting the entries by self-cleavage according to these classes? 1: < 0.2; 2: ≥ 0.2 and < 0.6; 3: ≥ 0.6

For orientation, consider the following solved cases.
>  <variant-annotation>
A45G A87G

>  <group>
3

$$$$
>  <variant-annotation>
C15A U46C

>  <group>
3

$$$$
>  <variant-annotation>
C14A A77G

>  <group>
3

$$$$

Data request: Hi, small favor: classify C4U G5A by its self-cleavage when you get a moment.
Data returned: 1

Data request: For C36A U46A , which self-cleavage bin applies?
Data returned: 2

Data request: Sort into band: A43G G59C
Data returned: 3
